Test system: spindle assembly checkpoint
Assay overview: SAC-Formation - Nocodazole-Induced Assay
Type: cell-based
Assay setup: Homo sapiens; HeLa cells, nocodazole 0.1 μg/ml, 24 h, phosphorylated histone H3 on serine 10
From the text: The spindle assembly checkpoint assures the proper segregation of chromosomes during mitosis. Upon entry into mitosis, chromosomes begin to condensate which is accompanied by the phosphorylation of histone H3 on serine 10. Dephosphorylation of histone H3 on serine 10 begins in anaphase and ends at early telophase. […] The mitotic breakthrough can be detected by the decrease of cells with phosphorylation of histone H3 on serine 10. […]
pIC50: −log10 of the molar value.
Label class 1 for high-side pIC50 (at or above 6) and class 0 for low-side pIC50 (below it).

Data request: Assess whether reported pIC50 for "COc1ccc(NC(=O)c2c(C)nsc2Nc2nc3c(C(F)(F)F)ccnc3s2)cn1" sits at 6 or higher.
Data returned: class 1

Data request: Assess whether reported pIC50 for "CCOC(=O)c1cnc(Nc2snc(C)c2C(=O)Nc2ccc(OC)nc2)s1" sits at 6 or higher.
Data returned: class 1

Data request: Assess whether reported pIC50 for "CCc1cnc(Nc2snc(C)c2C(=O)Nc2ccccc2CC)nc1" sits at 6 or higher.
Data returned: class 0

----------
Test system: HeLa-MaTu-ADR
Assay overview: Proliferation assay (crystal violet), HeLa-MaTu-ADR
Type: cell-based
Assay setup: 96 h, 4 days, read-out: Inhibition of proliferation IC50 HeLa-MaTu-ADR
pIC50 overview
Give only the number. pIC50 is defined as minus log10 of concentration in molar units.

>  <Smiles record>
Cc1nsc(Nc2nc3c(C(F)(F)F)cccc3s2)c1C(=O)Nc1ccc(Cl)c(F)c1

>  <Observed measurement>
6.51

$$$$
>  <Smiles record>
Cc1nsc(Nc2cc(C#N)ccn2)c1C(=O)Nc1ccc(F)c(F)c1

>  <Observed measurement>
6.62

$$$$
>  <Smiles record>
COc1ccc(NC(=O)c2c(C)nsc2Nc2cnc3cc(Cl)ccc3n2)cn1

>  <Observed measurement>
5.57

$$$$
>  <Smiles record>
COc1ccc(NC(=O)c2c(C)nsc2Nc2cnc3c(F)c(F)ccc3n2)cn1

>  <Observed measurement>
6.59

$$$$
>  <Smiles record>
Cc1nsc(Nc2nc3c(C(F)(F)F)cccc3s2)c1C(=O)Nc1ccc(F)c(F)c1

>  <Observed measurement>
6.43

$$$$
>  <Smiles record>
COc1ccc(NC(=O)c2c(C)nsc2Nc2cncc(C(F)(F)F)n2)cn1

>  <Observed measurement>
6.48

$$$$
>  <Smiles record>
COc1ccc(NC(=O)c2c(C)nsc2Nc2cnc(C(F)(F)F)cn2)cn1

>  <Observed measurement>
6.44

$$$$
>  <Smiles record>
Cc1nsc(Nc2cnc(Br)cn2)c1C(=O)Nc1ccc(F)c(F)c1

>  <Observed measurement>
7.03

$$$$

Note: attention shifts to another entry.
Data request: // pIC50 lookup, key: "CCc1ccccc1NC(=O)c1c(C)nsc1Nc1cnc2cc(F)ccc2n1"
Data returned: 6.30

----------
Test system: HeLa
Assay overview: Proliferation assay (crystal violet), HeLa
Type: cell-based
Assay setup: Homo sapiens, 96 h, 4 days, read-out: Inhibition of proliferation IC50 HeLa
Experimental endpoint: IC50 (nM)
Give the value, in units of nM, as a plain number.

Data request: // IC50 lookup, key: Cc1nsc(Nc2cnccn2)c1C(=O)Nc1ccc(Cl)c(F)c1 [Example 56]
Data returned: 790

Data request: // IC50 lookup, key: Cc1nsc(Nc2cnc3ccccc3n2)c1C(=O)Nc1ccc(Cl)c(F)c1 [Example 40]
Data returned: 560

Data request: // IC50 lookup, key: Cc1nsc(Nc2ccc(C#N)cn2)c1C(=O)Nc1ccc(OC(C)C)nc1 [Example 110]
Data returned: 1500

Data request: // IC50 lookup, key: COc1ccc(NC(=O)c2c(C)nsc2Nc2cnc(C(F)(F)F)cn2)cn1 [Example 85]
Data returned: 1000

Data request: // IC50 lookup, key: CCc1ccccc1NC(=O)c1c(C)nsc1Nc1ccnc(C#N)n1 [Example 6]
Data returned: 3200

Data request: // IC50 lookup, key: Cc1nsc(Nc2cnc3ccccc3n2)c1C(=O)Nc1ccc(Oc2ccc(F)cc2F)nc1 [Example 113]
Data returned: 880
